assay: viability gain of MRP-1-high H69AR cells under doxorubicin, pilot screen, MRP-1 activator project, CellTiter-Glo, duplicate (AID 807); details: H69AR viability with doxorubicin, CellTiter-Glo luminescence; at 10 µM; active compounds read high;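 note: compound pretreatment 18-22 h then 72 h combined with doxorubicin; 0% = doxorubicin alone and 100% = vehicle without doxorubicin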
Consider the following molecules; for each one, report its viability increase.
Give the value, in units of %, as a plain number.

Looking up `COc1ccccc1N(CC(=O)Nc1ccccc1C)S(C)(=O)=O` , I found its viability increase recorded as -3.72

Per the record, `O=C(Nc1nccs1)C1CCN(S(=O)(=O)c2cccnc2)CC1` has viability increase of -0.26

Entry `CCOC(=O)NC(Nc1nnc(SCC)s1)(C(F)(F)F)C(F)(F)F` — recorded viability increase = -2.85

Consider `O=C(Cn1cc2c(n1)CCCC2)NCCCN1CCN(Cc2ccccc2)CC1` . Its measured viability increase is -2.71

Lab note: `CN(C)c1nc(N)nc(-c2ccco2)n1` gave viability increase of 0.01

viability increase reading for `COC(=O)c1ccsc1NC(=O)C1=COCCO1` : -0.42

Entry under test: `Cn1c(=O)c2c(nc(NCc3ccccc3)n2Cc2ccc(F)cc2)n(C)c1=O` . Its viability increase was -5.47

Entry `CCN1CCN(CCNC(=O)C2CCN(Cc3nc(-c4ccc(Cl)cc4)oc3C)CC2)CC1` , viability increase reported as -3.29

The molecule identified as `Cc1ccc(C)c(N2CCN(C(=O)CCc3nc4ccccc4[nH]3)CC2)c1` registered its viability increase at 1.46

Documented viability increase of `Cn1c(CCNC(=O)c2ccc(F)cc2)nc2ccccc21` : 2.04

// recorded viability increase for `Cc1cc2cc(CNC(=O)c3ccc(Br)o3)ccc2[nH]1` : -1.33
